Test system: HL-1
test-name: relative cell viability (CellTiter-Glo) vs DMSO control (% of DMSO control); higher = more viable cells
measurement-setup: oxygen condition: normoxia 72 h; 5000 nM
Where a name gives a salt, the structure may show the parent alone.
Entries and their measured relative cell viability follow.
experimental-endpoint: relative cell viability

In [3]: df
Out[3]:
                                   compound    experimental_endpoint  data_value
0  C[C@@H]1CCN(C(=O)CC#N)C[C@@H]1N(C)c1ncnc2[nH]ccc12 [Tofacitinib citrate]  relative cell viability         103
1  COCCOC(=O)C1=C(C)NC(C)=C(C(=O)OC/C=C/c2ccccc2)C1c1cccc([N+](=O)[O-])c1 (centres undefined)  relative cell viability         110
2  Clc1ccccc1CN1CCc2sccc2C1 [Ticlopidine HCl]  relative cell viability         108
3  CC(C)c1c(C(=O)Nc2ccccc2)c(-c2ccccc2)c(-c2ccc(F)cc2)n1CC[C@@H](O)C[C@@H](O)CC(=O)O  relative cell viability        19.9

====

Test system: HL-1
test-name: relative cell viability (CellTiter-Glo) vs DMSO control (% of DMSO control); higher = more viable cells
measurement-setup: oxygen condition: hypoxia 48 h (1% O2) + reoxygenation 24 h; 5000 nM
experimental-endpoint: relative cell viability

In [3]: df
Out[3]:
                                   compound  data_value
0    NC(N)=Nc1nc(CSCC/C(N)=N/S(N)(=O)=O)cs1         120
1  CC1=C(/C=C/C(C)=C/C=C/C(C)=C\C(=O)O)C(C)(C)CCC1         111
2  O=S(=O)(O)Oc1ccc(C(c2ccc(OS(=O)(=O)O)cc2)c2ccccn2)cc1 [Sodium Picosulfate]         116

====

Entries and their measured relative cell viability follow.
Test system: HL-1
test-name: relative cell viability (CellTiter-Glo) vs DMSO control (% of DMSO control); higher = more viable cells
measurement-setup: oxygen condition: hypoxia 48 h (1% O2) + reoxygenation 24 h; 5000 nM
Where a name gives a salt, the structure may show the parent alone.
experimental-endpoint: relative cell viability

                                    molecule  target_system    experimental_endpoint  data_value
 0  CC(C)c1nc(CN(C)C(=O)N[C@@H](CCN2CCOCC2)C(=O)N[C@H](CC[C@H](Cc2ccccc2)NC(=O)OCc2cncs2)Cc2ccccc2)cs1 [Cobicistat]           HL-1  relative cell viability         120
 1  O=C(O)C(=O)O.[NH-][C@@H]1CCCC[C@H]1[NH-].[Pt+2]           HL-1  relative cell viability         114
 2                  O=C(O)c1cc(=O)c2ccccc2o1           HL-1  relative cell viability         110
 3  CC(CN(C)C)CN1c2ccccc2CCc2ccccc21 (stereo unspecified) [Trimipramine Maleate]           HL-1  relative cell viability         111
 4  O=C1c2cccc3c2[C@H](CCC3)CN1[C@@H]1CN2CCC1CC2 [Palonosetron HCl]           HL-1  relative cell viability          97
 5  CCN(CC)CC#CCOC(=O)C(O)(c1ccccc1)C1CCCCC1 (stereo unspecified) [Oxybutynin chloride]           HL-1  relative cell viability        98.8
 6                            O=C(O)c1cccnc1           HL-1  relative cell viability         109
 7  CCN(CC)CCOC(=O)C1(C2CCCCC2)CCCCC1 [Dicyclomine HCl]           HL-1  relative cell viability         100
 8  CCCCCN(C)CCC(O)(P(=O)(O)O)P(=O)(O)O [Ibandronate sodium]           HL-1  relative cell viability          91
 9  NS(=O)(=O)c1cc(C(=O)O)c(NCc2ccco2)cc1Cl [Furosemide]           HL-1  relative cell viability         112
10  O=C(O[C@H]1CN2CCC1CC2)N1CCc2ccccc2[C@@H]1c1ccccc1 [Solifenacin succinate]           HL-1  relative cell viability         106

====

System: HL-1
test-name: relative cell viability (CellTiter-Glo) vs DMSO control (% of DMSO control); higher = more viable cells
measurement-setup: oxygen condition: hypoxia 48 h (1% O2) + reoxygenation 24 h; 1000 nM
Counter-ions that a name gives are not always drawn.
experimental-endpoint: relative cell viability

                                   compound    experimental_endpoint  data_value
0  COc1ccc(-c2nc3cc(C4=NNC(=O)CC4C)ccc3[nH]2)cc1 (stereo not given)  relative cell viability        99.1
1  O=C(NC[C@H]1CN(c2ccc(N3CCOCC3=O)cc2)C(=O)O1)c1ccc(Cl)s1  relative cell viability        99.8
2  Cc1ncc(CO)c(CO)c1O [Pyridoxine hydrochloride]  relative cell viability         103
3            O=C[C@H](O)[C@@H](O)[C@H](O)CO  relative cell viability         103
4                    CC1=CC(=O)c2ccccc2C1=O  relative cell viability         102

====

System: HL-1
test-name: relative cell viability (CellTiter-Glo) vs DMSO control (% of DMSO control); higher = more viable cells
measurement-setup: oxygen condition: hypoxia 48 h (1% O2) + reoxygenation 24 h; 5000 nM
Structures can show the parent of a compound that is named as a salt.
experimental-endpoint: relative cell viability

>>> print(df.to_string())
                                    compound  data_value
 0  Cc1nccn1CC1CCc2c(c3ccccc3n2C)C1=O (stereo unspecified)         109
 1  CCCCOc1cc(C(=O)OCCN(CC)CC)ccc1N [Oxybuprocaine HCl]         108
 2  CN(N=O)C(=O)N[C@@H](C=O)[C@@H](O)[C@H](O)[C@H](O)CO         109
 3  CNC1CCCN(c2c(F)cc3c(=O)c(C(=O)O)cn(C4CC4)c3c2OC)C1 (stereo unspecified)         107
 4  C#C[C@]1(O)CC[C@H]2[C@@H]3CCc4cc(OC)ccc4[C@H]3CC[C@@]21C         101
 5  O=C(NCCN1CCOCC1)c1ccc(Cl)cc1 [Moclobemide]         120
 6           Cc1ccc(C)c(OCCCC(C)(C)C(=O)O)c1         103
 7  O=P(O)(O)C(O)(Cc1cccnc1)P(=O)(O)O [Risedronate sodium]         122
 8  Cc1ccc(Nc2nccc(N(C)c3ccc4c(C)n(C)nc4c3)n2)cc1S(N)(=O)=O [Pazopanib]         116
 9  CCCCCCCCCCC[C@@H](C[C@@H]1OC(=O)[C@H]1CCCCCC)OC(=O)[C@H](CC(C)C)NC=O         107
10  CCN(CC)C(=O)/C(C#N)=C/c1cc(O)c(O)c([N+](=O)[O-])c1         108

====

Tested on: HL-1
test-name: relative cell viability (CellTiter-Glo) vs DMSO control (% of DMSO control); higher = more viable cells
measurement-setup: oxygen condition: normoxia 72 h; 5000 nM
Where a name gives a salt, the structure may show the parent alone.

compound	relative cell viability
Nc1nc2n[nH]nc2c(=O)[nH]1	104
Clc1ccc(C(c2ccccc2Cl)C(Cl)Cl)cc1 (stereo not given)	121
CCOC(=O)C1=C(COCCN)NC(C)=C(C(=O)OC)C1c1ccccc1Cl (stereo not given) [Amlodipine]	106
CCCCOc1ccc(CC(=O)NO)cc1	110
COc1ccc(CC(C)NCC(O)c2ccc(O)c(NC=O)c2)cc1 (stereo not given) [Formoterol hemifumarate]	106
CCCSc1nc(N[C@@H]2C[C@H]2c2ccc(F)c(F)c2)c2nnn([C@@H]3C[C@H](OCCO)[C@@H](O)[C@H]3O)c2n1	111
CCC(=O)O[C@]1(C(=O)CCl)[C@@H](C)C[C@H]2[C@@H]3CCC4=CC(=O)C=C[C@]4(C)[C@@]3(F)[C@@H](O)C[C@@]21C [Clobetasol propionate]	94.5
O=C1[C@H](CC[C@H](O)c2ccc(F)cc2)[C@@H](c2ccc(O)cc2)N1c1ccc(F)cc1	112
COc1cc2c(cc1OC)C(=O)C(CC1CCN(Cc3ccccc3)CC1)C2 (stereo not given) [Donepezil HCl]	107
O=C1CN2Cc3c(ccc(Cl)c3Cl)N=C2N1 [Anagrelide HCl]	111
CC(C)[C@H](N)C(=O)OCC(CO)OCn1cnc2c(=O)nc(N)[nH]c21 (stereo not given in full) [valganciclovir hydrochloride]	115
CCCc1ncc(C[n+]2ccccc2C)c(N)n1 [Amprolium HCl]	100
NC(=O)N1c2ccccc2CC(=O)c2ccccc21 [Oxcarbazepine]	109
CCCCNc1ccc(C(=O)OCCN(C)C)cc1 [Tetracaine hydrochloride]	108
CN1CCC(=C2c3ccccc3CC(=O)c3sccc32)CC1 [Ketotifen fumarate]	106
Cc1cc(C#N)cc(C)c1Oc1nc(Nc2ccc(C#N)cc2)nc(N)c1Br	110
C[C@]12CC[C@@H]3c4ccc(O)cc4C[C@@H](CCCCCCCCC[S+]([O-])CCCC(F)(F)C(F)(F)F)[C@H]3[C@@H]1CC[C@@H]2O (stereo not given in full)	135
Cc1ccc(O)c([C@H](CCN(C(C)C)C(C)C)c2ccccc2)c1 [Tolterodine tartrate]	110
CCOC(=O)c1ncn2c1CN(C)C(=O)c1cc(F)ccc1-2	106
CCc1c2c(nc3ccc(OC(=O)N4CCC(N5CCCCC5)CC4)cc13)-c1cc3c(c(=O)n1C2)COC(=O)[C@]3(O)CC	22.8
